- System: CAKI-1 renal
- experimental protocol: NCI-60 one-dose screen, 48 h
- test parameters: 10 µM unless noted
About 83,000 compounds went through this panel and 20% of them were active in at least one assay; those are over-represented in the sample as a whole. The source made the active and inactive calls. Rule for the calls: active = growth percent below 10; inactive = the rest.
Response enum: 1 (yes) (active), 0 (no) (inactive)

Example results:
molecule	tested system	label class
C[C@@H]1[C@H]2C[C@@H](C[C@H]1NCc1nc3ccccc3n1C1CCCCCC1)C2(C)C	CAKI-1 renal	0 (no)
Cn1cc(-c2cc(N)n3nc(-c4c[nH]c5ccccc45)cc3n2)c2ccccc21	CAKI-1 renal	1 (yes)
COC(=O)c1cc(C(=O)C(F)(F)F)n2c3ccccc3c3ccccc3c12	CAKI-1 renal	0 (no)
Cc1ccc(C2CC(c3ccc(S(=O)(=O)NCCNc4nc(N(C)C)nc(N5CCOCC5)n4)cc3)=Nc3c(N)nc(N)nc3N2)cc1 (centres undefined)	CAKI-1 renal	0 (no)
O=C(N/N=C/c1c[nH]c2ccccc12)Nc1ccc(F)c(Cl)c1	CAKI-1 renal	0 (no)
COc1ccc(N=Nc2c(N)nn3c(-c4ccc([N+](=O)[O-])cc4)ccnc23)cc1	CAKI-1 renal	0 (no)

Would you mind telling me which call this test gave Cc1ccc2nc(NC(=O)Nc3cccc(Cl)c3)sc2c1 ?
0 (no)

----------
- Test system: MALME-3M melanoma
- experimental protocol: NCI-60 one-dose screen, 48 h
- test parameters: 10 µM unless noted
This is part of a sample that, as a whole, favours compounds with a hit. Of some 83,000 tested, about 20% had one in any assay. Calls of active or inactive are those of the source. How the source made its calls: active means growth percent below 10; inactive means the rest.
Respond only with the outcome that fits, drawn from active, inactive

molecule	label class
Cc1ccc(C2CC(c3ccc(S(=O)(=O)NCCNc4nc(N(C)C)nc(N5CCOCC5)n4)cc3)=Nc3c(N)nc(N)nc3N2)cc1 (stereo unspecified)	inactive
Nc1cc2ccccc2c(=O)n1NC(=O)c1ccc(Br)cc1	inactive
CC(Nc1ncnc2ccc(-c3ccc4oc(N)nc4c3)cc12)c1ccccc1 (stereo unspecified)	active

Query: recorded result category for OC1CCC(Cn2c(C(F)(F)F)cc3c(Cl)ncnc32)CC1 (stereo unspecified) in this test
inactive

Consider next the molecule CC[C@]12C=CCN3CC[C@@]4(c5ccc(OC)cc5N(C)[C@H]4[C@@](O)(C(=O)OC)[C@@H]1OC(=O)CCC[P+](c1ccc(OC)cc1)(c1ccc(OC)cc1)c1ccc(OC)cc1)[C@@H]32 in the same way.
active

Input O=C(NN1C(=O)/C(=C/C=C/c2ccc([N+](=O)[O-])o2)SC1=S)c1ccc([N+](=O)[O-])cc1
active

Next up: CCOc1ccccc1[C@H]1C(C(=O)c2ccc(Cl)cc2)C2(N[C@@H]1c1ccccc1)C(=O)Nc1ccc(Cl)cc12 (stereo partly specified)
inactive

Moving on to CCC1(OC(=O)c2ccccc2SSCCOC(=O)CCCCC2SCC3NC(=O)NC32)C(=O)OCc2c1cc1n(c2=O)Cc2cc3ccccc3nc2-1 (stereo unspecified)
inactive

Item: N#C/C(=C/c1ccc([N+](=O)[O-])cc1)c1nnc(NC(=O)c2ccc(-n3c(=O)[nH]c4ccccc4c3=O)cc2)s1
inactive

Try this molecule next: CCCSc1nnc(-c2c(C)nc3sccn23)o1
inactive

Could you do the same for COc1ccc(-c2cc(C(=O)N=Nc3c(O)[nH]c4ccc(Cl)cc34)c3ccccc3n2)cc1 , please?
inactive

Lookup COc1ccc(CCC2NCCc3c(Br)c4c(c(OC)c32)OCO4)cc1 (stereo unspecified)
inactive

Similarly, Cc1ccc(C(=O)Nc2cc(-n3ccnc3C)cc(C(F)(F)F)c2)cc1C#Cc1cnc2cccnn12 ?
active

Can you check O=C(CSc1nc2ccccc2c(=O)[nH]1)NNC(=O)c1ccccc1Cl next?
inactive

// next record COc1ccccc1/C=C/c1cccc(NC(=S)NCCCCN(C)C)c1
active

Next entry: C=CCSc1nnc(-c2ccc(-c3nc4ccc(Cl)cc4[nH]3)cc2)o1
inactive

Same question, COc1ccc(-c2cc(C(=O)OCc3ccc(Br)cc3)nn2-c2ccc(S(C)(=O)=O)cc2)cc1OC this time
inactive

Please answer likewise for COc1ccc2c(c1)N=c1c-2cc2c(O)[nH]c(=S)n2c1=O
inactive

----------
- Tested on: MDA-MB-435 melanoma
- experimental protocol: NCI-60 one-dose screen, 48 h
- test parameters: 10 µM unless noted
This is part of a sample that, as a whole, favours compounds with a hit. Of some 83,000 tested, about 20% had one in any assay. Calls of active or inactive are those of the source. How the source made its calls: active means growth percent below 10; inactive means the rest.
Outcome field: choose from active, inactive

Solved cases (5 shown):
compound	label class
COc1cc2cc(C(=O)N3C[C@@H](CCl)c4c3cc(OC(=O)N(C)CCSSCCN3CCOCC3)c3ccccc43)[nH]c2c(OC)c1OC	active
COc1cc(C2CC(c3ccc(F)cc3)=Nc3c(N)nc(N)nc3N2)ccc1Oc1nc(Nc2ccc(F)cc2)nc(N(C)C)n1 (stereo unspecified)	inactive
O=C(NNC(=O)c1ccc(OCc2nc3ccc(Cl)cc3[nH]2)cc1)Nc1ccc(Cl)c(C(F)(F)F)c1	inactive
COc1cc(NC(=O)C(C)C)ccc1C(=O)NC(=S)Nc1ccc(S(N)(=O)=O)cc1	inactive
N#Cc1cc(-c2ccc3ncnc(N4CCc5cc(F)c(Cl)cc54)c3c2)cnc1N	inactive

Hi, do you know how CC1=C(C(=O)Nc2ccccc2)C(c2cccc(Cl)c2Cl)n2c(nc3ccccc32)N1 (stereo unspecified) came out in this test?
inactive

Also need CN1CCN(CCS(=O)(=O)Nc2cc(-c3ccc4ncnc(Nc5ccc(F)c(Cl)c5)c4c3)cnc2Cl)CC1 , thanks.
active

Further, for CCc1ccc(SC2c3cc(OC)ccc3Oc3nc(N)c(C#N)c(N)c32)cc1 (stereo unspecified) ?
active

And for COc1cc(C2C(C(=O)OCc3ccccc3)=C(C)Nc3nc4ccccc4n32)cc(OC)c1OC (stereo unspecified) ?
active

Ok, now Oc1cncc(-c2ccc3ncnc(N4CCc5cc(F)c(Cl)cc54)c3c2)c1
inactive

What about this compound? Nc1cc(-c2c[nH]c3ccc(Cl)cc23)nc2cc(-c3c[nH]c4ccccc34)nn12
active

Try Cc1ccc(/C=C/C(=O)c2ccc(S(=O)(=O)NCCNc3nc(N(C)C)nc(N4CCOCC4)n3)cc2)cc1 next.
inactive

Could you do the same for C/C(=N\Nc1ccc(S(N)(=O)=O)cc1)c1cnn(-c2cc(=O)[nH]c3ccc(Br)cc23)c1C , please?
active

Then what about the compound S=C(NCCc1ccccc1)Nc1ccc(OCc2nc3ccc(Cl)cc3[nH]2)cc1 ?
inactive

Now consider O=C(c1ccc(O)cc1)C1[C@H](c2ccc(Cl)cc2)[C@@H](c2ccccc2)NC12C(=O)Nc1ccccc12 (stereo partly specified) .
active

----------
- Tested on: SNB-75 CNS
- experimental protocol: NCI-60 one-dose screen, 48 h (100 = growth as untreated, 0 = no growth, -100 = all killed)
- test parameters: 10 µM unless noted
This is part of a sample that, as a whole, favours compounds with a hit. Of some 83,000 tested, about 20% had one in any assay.
recorded metric: growth (%)
Quick reminder: number only, in %, skip the unit.

molecule	growth [%]
C/C(=N\Nc1ccc(S(N)(=O)=O)cc1)c1cnn(-c2cc(=O)[nH]c3ccc(Br)cc23)c1C	22
COc1cc(/C=N/NC(=O)c2ccc(OCc3nc4ccc(C)cc4[nH]3)cc2)cc(OC)c1OC	135
COc1ccc2c(c1)C(Sc1ccc(Br)cc1)c1c(nc(N)c(C#N)c1N)O2 (configuration not stated)	80.4

Which value of growth has been reported for Cc1cc(C)c2[nH]c(=O)c(C(c3nnnn3Cc3ccc4c(c3)OCO4)N3CCN(C)CC3)cc2c1 (configuration not stated) in the records?
115

COc1cc(NC(=O)C(C)C)ccc1C(=O)NC(=S)Nc1ccc(S(N)(=O)=O)cc1 ?
95.5

// repeat for CC[C@]12C=CCN3CC[C@]4(C(=C(C(=O)OC)C1)Nc1cc(OC)c([C@@H]5[C@H]6O[C@H]6[C@@]6(CC)CC(C(=O)OC)=C7Nc8cc(O)ccc8[C@@]78CCN5[C@@H]68)cc14)[C@@H]32 and report
27.3

----------
- Test system: HOP-92 NSCLC
- experimental protocol: NCI-60 one-dose screen, 48 h (100 = growth as untreated, 0 = no growth, -100 = all killed)
- test parameters: 10 µM unless noted
About 83,000 compounds went through this panel and 20% of them were active in at least one assay; those are over-represented in the sample as a whole.
Field 'label' (enum: 1.0 / 0.0). Set to 1.0 when growth is strictly under 40%; else 0.0.

Please review the following examples before continuing.
input smiles	label class
O=C1c2cccc3c(N4CCN(c5ccccc5)CC4)ccc(c23)C(=O)N1c1cccc(-c2nn(-c3ccccc3)cc2-c2nc3ccccc3s2)c1	0.0
CS(=O)(=O)c1ccc(-n2nc(C(=O)NCc3ccccc3)cc2-c2ccc(Cl)cc2)cc1	0.0

hey, is growth for CCCCCCCCc1ccc(C(=O)Nc2ccc(C)c(OP(=O)(O)O)c2)cc1 lower than 40% or not?
0.0

Same again, this time with CC(C)C[C@H](NC(=O)[C@@H]1CCCCCCCCCCC(=O)N[C@@H](CC(=O)N2CCC[C@@H]2C2CCCC2)C(=O)N1)B(O)O
1.0

Note, next up: NCCCCn1c(SCCc2c[nH]c3ccccc23)nnc1-c1ccc2ccccc2n1
1.0
